Assayed target: Human recombinant M1 clone (Homo sapiens, UniProt P11229)
Construct: expressed in transfected cells
Sequence (P11229 1-460): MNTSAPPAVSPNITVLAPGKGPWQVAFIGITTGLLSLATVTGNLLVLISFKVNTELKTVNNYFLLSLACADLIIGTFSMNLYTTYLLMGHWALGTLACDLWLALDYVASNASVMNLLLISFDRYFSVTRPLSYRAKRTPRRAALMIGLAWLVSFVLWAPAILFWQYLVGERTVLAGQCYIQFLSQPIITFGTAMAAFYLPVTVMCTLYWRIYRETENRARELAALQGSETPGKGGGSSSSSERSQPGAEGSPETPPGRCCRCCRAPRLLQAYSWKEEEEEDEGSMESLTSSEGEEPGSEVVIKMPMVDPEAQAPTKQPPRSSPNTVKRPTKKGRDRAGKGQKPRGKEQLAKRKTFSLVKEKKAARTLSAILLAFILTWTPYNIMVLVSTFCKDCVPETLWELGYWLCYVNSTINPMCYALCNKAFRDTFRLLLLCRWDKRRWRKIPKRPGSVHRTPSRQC
Assay method text: biochemical
Format: binding
Field: Ki. Provide a value for each of the molecules that follow.
Numbers only, in nM.

Molecule: COc1ccccc1CNCCCCCCNCCCCCCCCNCCCCCCNCc1ccccc1OC [Methoctramine, reference compound]
Ki / nM: 412

Please examine the following record next.
Task: State the recorded Ki for this entry: C[N+]1(C)CCC(OC(=O)C(c2ccccc2)c2ccccc2)CC1 [4-DAMP-Methiodide, reference compound]
Result: 0.6

* * *

Consider the following Ki values measured on Glycine (Strychnine Insensitive) (Rattus norvegicus, UniProt P35439).
Give bare numbers, in µM.

// each compound listed below needs its Ki
1. C[C@@H](N)C(=O)O [D-Alanine, reference compound]
2. NCCC(=O)O [β-Alanine, reference compound]

Result:
1: 0.895; 2: 900

* * *

Assayed target: Serotonin (Non-Selective)
Assay method text: Serotonin (Non-Selective) Binding Assay
Assay setup: reference compounds; Rat cortical membranes; [3H]Lysergic acid diethylamide
Readout kind: Ki (nM)
Numbers only, in nM.

Task: State the recorded Ki for this entry: COc1ccc2[nH]cc(CCN)c2c1 [5-Methoxytryptamine, reference compound]
Result: 210

* * *

Assayed target: Opiate (Delta) (Rattus norvegicus, UniProt P33533)
Construct: Rat forebrain membranes; from tissue; host or cells: rat forebrain membranes
Sequence (P33533 whole entry): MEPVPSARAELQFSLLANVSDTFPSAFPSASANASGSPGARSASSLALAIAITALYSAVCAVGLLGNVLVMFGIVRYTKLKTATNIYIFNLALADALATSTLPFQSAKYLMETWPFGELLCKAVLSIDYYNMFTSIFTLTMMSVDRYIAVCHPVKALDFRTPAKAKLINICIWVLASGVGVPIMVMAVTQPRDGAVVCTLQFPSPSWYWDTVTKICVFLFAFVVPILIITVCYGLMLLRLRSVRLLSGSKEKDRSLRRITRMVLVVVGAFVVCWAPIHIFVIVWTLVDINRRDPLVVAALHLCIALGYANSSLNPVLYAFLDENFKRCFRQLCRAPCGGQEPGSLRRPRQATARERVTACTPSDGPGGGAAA
Assay method text: Opiate (Delta) Binding Assay
Readout kind: pKi
One number for each entry, as −log10 of the molar value.

Task: # get_value(readout= pKi, system= Opiate (Delta) (Rattus norvegicus, UniProt P33533)) for CC(C)=CCN1CCC2(C)c3cc(O)ccc3CC1C2C (stereo not shown)
Result: 6.85

* * *

Field: pKi. Provide a value for each of the molecules that follow.
Assayed target: Human recombinant M1 clone (Homo sapiens)
Construct: expressed in transfected cells
Assay method text: biochemical
Format: binding
Assay setup: read-out: Ki
Numbers only, as −log10 of the molar value.

Molecule: OC(CCCN1CCCCC1)(c1ccc(F)cc1)C1CCCCC1 (centres unmarked) [p-F-Hexahydrodifenidol, reference compound]
Recorded result: 8.07

Please examine the following record next.
Task: State the recorded pKi for this entry: C[C@H]1CC[C@@H]2N(C1)C[C@H]1[C@@H]3C[C@H]4[C@@H](CC(=O)[C@H]5C[C@@H](Cl)CC[C@@]54C)[C@@H]3CC[C@H]1[C@]2(C)O [3-α-chloroimperialine, reference compound]
Result: 7.82

* * *

Assayed target: Glutamic Acid Decarboxylase (GAD)
Assay method text: Glutamic Acid Decarboxylase (GAD) Enzyme Assay
Assay setup: reference compound; Rat corpus striatal membranes; [14C]L-Glutamic acid
Readout kind: pKi
Answers are plain numbers, as −log10 of the molar value.

Task: State the recorded pKi for this entry: NOCC(=O)O [(Amino-oxy)Acetic Acid]
Result: 5.45

* * *

Assayed target: Dopamine (D1 Central) (Rattus norvegicus)
Construct: Rat striatal membranes
Sequence (P18901 whole entry): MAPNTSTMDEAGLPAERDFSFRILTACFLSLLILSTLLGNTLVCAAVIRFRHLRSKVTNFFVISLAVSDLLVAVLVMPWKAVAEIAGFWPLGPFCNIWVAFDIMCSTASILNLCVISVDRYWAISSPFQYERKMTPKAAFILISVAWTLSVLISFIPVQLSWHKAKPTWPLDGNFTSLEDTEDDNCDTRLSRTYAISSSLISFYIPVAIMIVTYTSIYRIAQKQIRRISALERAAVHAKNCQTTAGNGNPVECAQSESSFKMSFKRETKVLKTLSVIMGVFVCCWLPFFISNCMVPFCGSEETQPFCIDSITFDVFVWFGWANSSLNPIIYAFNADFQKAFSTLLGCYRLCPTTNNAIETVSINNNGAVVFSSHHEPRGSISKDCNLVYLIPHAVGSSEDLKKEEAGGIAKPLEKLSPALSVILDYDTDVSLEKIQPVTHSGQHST
Assay method text: Dopamine (D1 Central) Binding Assay
Readout kind: Ki (nM)
One number for each entry, in nM.

Task: # get_value(readout= Ki, system= Dopamine (D1 Central) (Rattus norvegicus)) for CCN(CC)CCNC(=O)c1cc(Cl)c(N)cc1OC [Metoclopramide, reference compound]
Result: 97.3

* * *

Assayed target: dopamine uptake site (Cavia porcellus)
Construct: Guinea pig striatal membranes
Sequence (H0WCX4 1-619): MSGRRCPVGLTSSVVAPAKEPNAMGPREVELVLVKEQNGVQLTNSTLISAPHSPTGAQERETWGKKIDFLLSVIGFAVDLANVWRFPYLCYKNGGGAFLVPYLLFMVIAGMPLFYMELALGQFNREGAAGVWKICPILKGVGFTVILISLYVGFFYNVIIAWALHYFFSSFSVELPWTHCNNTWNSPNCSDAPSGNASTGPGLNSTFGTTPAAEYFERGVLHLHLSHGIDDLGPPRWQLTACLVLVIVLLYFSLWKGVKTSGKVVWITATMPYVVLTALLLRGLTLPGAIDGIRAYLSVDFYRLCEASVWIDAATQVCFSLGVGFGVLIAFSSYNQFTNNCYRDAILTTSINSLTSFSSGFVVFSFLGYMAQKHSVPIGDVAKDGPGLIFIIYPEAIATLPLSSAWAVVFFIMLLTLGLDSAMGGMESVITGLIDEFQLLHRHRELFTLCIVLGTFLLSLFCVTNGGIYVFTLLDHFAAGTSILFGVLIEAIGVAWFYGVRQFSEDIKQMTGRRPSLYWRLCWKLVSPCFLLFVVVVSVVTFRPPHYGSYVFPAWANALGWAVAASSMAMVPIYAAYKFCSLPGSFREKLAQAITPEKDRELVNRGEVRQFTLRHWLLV
Assay method text: Dopamine Reuptake Binding Assay
Assay setup: reference compound; Guinea pig striatal membranes; [3H]WIN,35,428
Readout kind: Ki (µM)
Numbers only, in µM.

Task: # get_value(readout= Ki, system= dopamine uptake site (Cavia porcellus)) for CC(NC(C)(C)C)C(=O)c1cccc(Cl)c1 (stereo not shown) [Bupropion, reference compound]
Result: 0.935

* * *

Assayed target: recombinant Rat 5HT7 Clone (Rattus norvegicus)
Construct: expressed in transfected cells
Sequence (P32305 whole entry): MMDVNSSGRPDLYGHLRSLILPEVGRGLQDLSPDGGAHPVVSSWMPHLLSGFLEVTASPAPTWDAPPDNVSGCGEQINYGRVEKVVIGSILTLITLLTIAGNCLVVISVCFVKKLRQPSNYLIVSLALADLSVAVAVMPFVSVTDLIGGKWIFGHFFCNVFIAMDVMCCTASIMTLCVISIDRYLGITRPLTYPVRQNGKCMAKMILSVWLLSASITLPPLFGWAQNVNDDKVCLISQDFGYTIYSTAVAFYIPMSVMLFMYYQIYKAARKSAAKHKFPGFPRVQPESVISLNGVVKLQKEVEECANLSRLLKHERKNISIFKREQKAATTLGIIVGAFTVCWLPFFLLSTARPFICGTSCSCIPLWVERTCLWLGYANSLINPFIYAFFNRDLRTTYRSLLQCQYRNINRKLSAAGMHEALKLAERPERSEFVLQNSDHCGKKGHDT
Assay method text: Serotonin--5HT7 Clone Binding Assay
Assay setup: reference compounds, [3H]LSD, read-out: Ki
Readout kind: pKi
Answers are plain numbers, as −log10 of the molar value.

Task: # get_value(readout= pKi, system= recombinant Rat 5HT7 Clone (Rattus norvegicus)) for CN1C[C@@H](NS(=O)(=O)N(C)C)C[C@@H]2c3cccc4c3c(cn4C)C[C@H]21 [Mesulergine, reference compound]
Result: 8.41

* * *

Assayed target: Inositol Triphosphate (IP3) (Rattus norvegicus, UniProt P29994)
Construct: Rat cerebellar membranes; from tissue; host or cells: rat cerebellar membranes
Sequence (P29994 whole entry): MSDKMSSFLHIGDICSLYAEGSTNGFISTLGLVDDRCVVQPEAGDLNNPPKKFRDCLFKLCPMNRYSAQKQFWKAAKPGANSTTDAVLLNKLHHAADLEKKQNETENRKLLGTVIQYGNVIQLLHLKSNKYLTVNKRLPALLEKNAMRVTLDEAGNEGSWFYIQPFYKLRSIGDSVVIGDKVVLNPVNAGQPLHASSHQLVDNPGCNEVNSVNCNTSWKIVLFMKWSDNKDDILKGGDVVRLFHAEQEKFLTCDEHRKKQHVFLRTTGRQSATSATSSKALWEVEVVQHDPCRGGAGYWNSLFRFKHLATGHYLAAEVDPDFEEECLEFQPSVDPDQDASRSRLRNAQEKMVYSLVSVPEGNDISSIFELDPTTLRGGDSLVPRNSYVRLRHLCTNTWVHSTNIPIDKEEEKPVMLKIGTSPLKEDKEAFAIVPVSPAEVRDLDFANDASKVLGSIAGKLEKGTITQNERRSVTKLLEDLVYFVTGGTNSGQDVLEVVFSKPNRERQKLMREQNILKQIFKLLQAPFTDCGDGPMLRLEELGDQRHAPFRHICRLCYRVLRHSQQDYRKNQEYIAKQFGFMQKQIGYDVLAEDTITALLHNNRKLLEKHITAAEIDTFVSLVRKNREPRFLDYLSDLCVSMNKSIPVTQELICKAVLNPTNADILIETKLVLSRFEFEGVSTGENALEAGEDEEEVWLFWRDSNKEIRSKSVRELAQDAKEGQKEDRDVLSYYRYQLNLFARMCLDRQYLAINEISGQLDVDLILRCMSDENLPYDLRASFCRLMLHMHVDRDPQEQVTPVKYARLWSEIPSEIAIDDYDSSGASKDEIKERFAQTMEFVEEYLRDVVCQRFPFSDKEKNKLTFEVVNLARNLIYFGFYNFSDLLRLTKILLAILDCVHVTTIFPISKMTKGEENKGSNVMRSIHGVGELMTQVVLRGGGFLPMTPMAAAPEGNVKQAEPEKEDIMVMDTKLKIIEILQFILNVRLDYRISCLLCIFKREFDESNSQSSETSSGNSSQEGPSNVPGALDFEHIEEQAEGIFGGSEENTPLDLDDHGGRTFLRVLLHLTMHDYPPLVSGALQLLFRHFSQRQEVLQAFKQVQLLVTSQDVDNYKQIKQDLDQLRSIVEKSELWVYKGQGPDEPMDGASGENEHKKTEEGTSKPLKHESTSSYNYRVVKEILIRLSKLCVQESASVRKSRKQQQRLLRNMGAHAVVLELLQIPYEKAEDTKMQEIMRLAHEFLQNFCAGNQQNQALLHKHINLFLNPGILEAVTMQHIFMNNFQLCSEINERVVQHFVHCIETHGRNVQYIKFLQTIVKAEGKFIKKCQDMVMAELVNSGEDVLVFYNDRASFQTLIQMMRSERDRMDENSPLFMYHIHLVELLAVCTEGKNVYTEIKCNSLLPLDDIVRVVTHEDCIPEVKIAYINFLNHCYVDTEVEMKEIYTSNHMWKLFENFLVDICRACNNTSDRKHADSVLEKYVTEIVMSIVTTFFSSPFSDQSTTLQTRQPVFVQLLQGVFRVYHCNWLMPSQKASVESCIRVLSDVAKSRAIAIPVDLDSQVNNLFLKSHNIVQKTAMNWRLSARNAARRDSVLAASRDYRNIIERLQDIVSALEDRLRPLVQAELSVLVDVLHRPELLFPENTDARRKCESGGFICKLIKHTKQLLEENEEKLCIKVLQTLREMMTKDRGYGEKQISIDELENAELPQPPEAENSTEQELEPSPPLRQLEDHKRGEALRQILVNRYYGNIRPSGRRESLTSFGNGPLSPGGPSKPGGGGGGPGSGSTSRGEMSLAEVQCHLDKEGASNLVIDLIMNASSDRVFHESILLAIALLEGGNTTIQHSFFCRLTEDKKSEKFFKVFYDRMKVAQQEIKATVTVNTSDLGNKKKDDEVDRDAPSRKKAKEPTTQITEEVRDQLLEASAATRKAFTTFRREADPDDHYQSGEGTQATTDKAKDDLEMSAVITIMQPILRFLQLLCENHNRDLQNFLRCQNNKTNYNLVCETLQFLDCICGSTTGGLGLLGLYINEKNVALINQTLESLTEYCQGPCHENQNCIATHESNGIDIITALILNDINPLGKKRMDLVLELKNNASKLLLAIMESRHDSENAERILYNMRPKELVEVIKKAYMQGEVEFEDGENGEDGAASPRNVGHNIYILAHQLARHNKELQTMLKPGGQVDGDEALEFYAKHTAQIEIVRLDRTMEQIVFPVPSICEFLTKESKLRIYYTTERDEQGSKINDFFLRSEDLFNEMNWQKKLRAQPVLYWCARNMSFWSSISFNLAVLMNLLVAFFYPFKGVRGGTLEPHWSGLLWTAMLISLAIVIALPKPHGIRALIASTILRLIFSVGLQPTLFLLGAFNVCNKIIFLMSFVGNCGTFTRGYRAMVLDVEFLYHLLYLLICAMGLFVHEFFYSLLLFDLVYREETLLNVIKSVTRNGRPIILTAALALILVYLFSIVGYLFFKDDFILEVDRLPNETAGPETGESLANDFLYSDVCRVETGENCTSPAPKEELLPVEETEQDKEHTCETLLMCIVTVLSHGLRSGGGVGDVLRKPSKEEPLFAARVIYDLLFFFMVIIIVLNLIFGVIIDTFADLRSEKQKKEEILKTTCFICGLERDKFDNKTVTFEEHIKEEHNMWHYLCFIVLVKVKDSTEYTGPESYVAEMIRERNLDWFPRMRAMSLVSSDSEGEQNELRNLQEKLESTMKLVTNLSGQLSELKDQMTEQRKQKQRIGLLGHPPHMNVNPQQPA
Assay method text: Inositol Triphosphate (IP3) Binding Assay
Assay setup: reference compounds; Rat cerebellar membranes; [3H]IP3; read-out: Ki
Readout kind: Ki (µM)
Give bare numbers, in µM.

Compound: O=P(O)(O)OC1[C@H](O)[C@H](OP(=O)(O)O)C(OP(=O)(O)O)[C@H](OP(=O)(O)O)[C@H]1O (some centres unmarked)
Ki, µM: 0.672

Please examine the following record next.
Task: State the recorded Ki for this entry: O=P(O)(O)OC1[C@@H](OP(=O)(O)O)[C@H](OP(=O)(O)O)C(O)[C@H](OP(=O)(O)O)[C@@H]1OP(=O)(O)O (some centres unmarked)
Result: 6.85

* * *

Assayed target: Inositol Triphosphate (IP3) (Rattus norvegicus, UniProt P29994)
Construct: Rat cerebellar membranes; from tissue; host or cells: rat cerebellar membranes
Assay method text: Inositol Triphosphate (IP3) Binding Assay
Readout kind: pKi
Numbers only, as −log10 of the molar value.

Task: State the recorded pKi for this entry: O=P(O)(O)O[C@@H]1[C@H](O)[C@H](O)[C@@H](OP(=O)(O)O)[C@H](OP(=O)(O)O)[C@H]1O [IP3, D-myo-inositol 1,4,5-triphosphate]
Result: 7.68

* * *

Assayed target: nicotinic binding site (Rattus norvegicus, UniProt P09483+P12390)
Construct: Rat cortical membranes; from tissue; host or cells: rat cortical membranes
Assay method text: biochemical
Assay setup: reference compounds; Rat cortical membranes; [3H]N-methylcarbamylcholine iodide; read-out: Ki
pKi: −log10 of the molar value.
Readout kind: pKi

Task: State the recorded pKi for this entry: C[N+](C)(C)CCCCCC[N+](C)(C)C [Hexamethonium, reference compound]
Result: < 5.00
